Hey, just so you know, these numbers are from patent EP1757607A1.

Measured Inhibition of TS % of individual entries
# target.of.assay: Trypanothione Synthetase TS (Crithidia fasciculata)
# Sequence (O60993 1-652): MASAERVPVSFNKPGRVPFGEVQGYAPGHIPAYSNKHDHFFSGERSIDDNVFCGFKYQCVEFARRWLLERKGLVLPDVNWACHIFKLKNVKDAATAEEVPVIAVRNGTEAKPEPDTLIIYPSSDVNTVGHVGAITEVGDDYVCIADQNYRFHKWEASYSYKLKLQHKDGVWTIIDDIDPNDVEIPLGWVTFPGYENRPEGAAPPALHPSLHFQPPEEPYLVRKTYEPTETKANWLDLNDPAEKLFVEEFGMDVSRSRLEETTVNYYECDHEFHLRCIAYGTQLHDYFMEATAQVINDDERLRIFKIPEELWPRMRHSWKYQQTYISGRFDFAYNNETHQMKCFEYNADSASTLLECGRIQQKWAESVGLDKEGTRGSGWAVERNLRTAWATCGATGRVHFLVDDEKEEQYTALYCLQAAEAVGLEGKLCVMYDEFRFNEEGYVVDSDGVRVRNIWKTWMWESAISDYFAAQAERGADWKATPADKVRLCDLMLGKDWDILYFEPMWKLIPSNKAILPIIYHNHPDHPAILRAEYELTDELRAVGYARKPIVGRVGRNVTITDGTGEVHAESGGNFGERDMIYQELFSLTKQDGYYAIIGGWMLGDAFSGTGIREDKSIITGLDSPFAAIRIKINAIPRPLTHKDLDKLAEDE
# protocol.description: Inhibition of Trypanothione Synthetase (Table 1)
# Type: biochemical
# experimental.context: compound concentration not stated for Table 1

{"columns": ["compound", "target.of.assay", "unit.of.measure", "Inhibition of TS %"],
 "data": [
  ["NCCCNCCCCNC(=O)CN1C(=O)Cc2c([nH]c3ccc(Br)cc23)-c2ccccc21 [Compound 20]", "Trypanothione Synthetase TS (Crithidia fasciculata)", "%", 24.6],
  ["NCCCNC(=O)CN1C(=O)Cc2c([nH]c3ccc(Br)cc23)-c2ccccc21 [Compound 18]", "Trypanothione Synthetase TS (Crithidia fasciculata)", "%", 37.8],
  ["CNCCNC(=O)CN1C(=O)Cc2c([nH]c3ccc(C)cc23)-c2ccccc21 [Compound 24]", "Trypanothione Synthetase TS (Crithidia fasciculata)", "%", 20.5],
  ["CNCCNC(=O)CN1C(=O)Cc2c([nH]c3ccccc23)-c2ccccc21 [Compound 23]", "Trypanothione Synthetase TS (Crithidia fasciculata)", "%", 0],
  ["CNCCNC(=O)CN1C(=O)Cc2c([nH]c3ccc(C#N)cc23)-c2ccccc21 [Compound 22]", "Trypanothione Synthetase TS (Crithidia fasciculata)", "%", 51.7],
  ["O=C(CN1C(=O)Cc2c([nH]c3ccc(Br)cc23)-c2ccccc21)N1CCNCC1 [Compound 25]", "Trypanothione Synthetase TS (Crithidia fasciculata)", "%", 76.5],
  ["NCCCCNCCCNC(=O)CN1C(=O)Cc2c([nH]c3ccc(Br)cc23)-c2ccccc21 [Compound 21]", "Trypanothione Synthetase TS (Crithidia fasciculata)", "%", 22.5],
  ["CNCCNC(=O)CN1C(=O)Cc2c([nH]c3ccc(Br)cc23)-c2ccccc21 [Compound 13]", "Trypanothione Synthetase TS (Crithidia fasciculata)", "%", 92.4],
  ["NCCNC(=O)CN1C(=O)Cc2c([nH]c3ccc(Br)cc23)-c2ccccc21 [Compound 17]", "Trypanothione Synthetase TS (Crithidia fasciculata)", "%", 78.6],
  ["NCCCCNC(=O)CN1C(=O)Cc2c([nH]c3ccc(Br)cc23)-c2ccccc21 [Compound 19]", "Trypanothione Synthetase TS (Crithidia fasciculata)", "%", 16.2]
]}

====

# target.of.assay: TryS (Crithidia fasciculata, UniProt O60993)
# protocol.description: Screening of potential inhibitors against TryS (malachite green, A650)
# Assay type: biochemical
# experimental.context: 10 µM compound; 90.75 nM TryS, 0.675 mM GSH, 6.75 mM spermidine, 45 µM ATP, room temperature, 60 min; triplicates; read-out: inhibitory effect (%)
Measured inhibition at 10 µM of individual entries
measured.attribute: inhibition at 10 µM (%)

{"columns": ["smiles.record", "numeric.readout"],
 "data": [
  ["NCCCCNCCCNC(=O)CN1C(=O)Cc2c([nH]c3ccc(Br)cc23)-c2ccccc21", 47.6],
  ["NCCNC(=O)CN1C(=O)Cc2c([nH]c3ccc(Br)cc23)-c2ccccc21", 96.8],
  ["NCCCNCCCCNC(=O)CN1C(=O)Cc2c([nH]c3ccc(Br)cc23)-c2ccccc21", 47.6],
  ["NCCCNC(=O)CN1C(=O)Cc2c([nH]c3ccc(Br)cc23)-c2ccccc21", 85.1],
  ["NCCCCNC(=O)CN1C(=O)Cc2c([nH]c3ccc(Br)cc23)-c2ccccc21", 54.3]
]}
